- targetOrSystem: HLA-A*26:01
- assaySummary: IEDB peptide-MHC binding, purified MHC/competitive/radioactivity; filed as Kd, often an IC50 or EC50 that approximates it; bounds were set here for any values at or beyond the usual limits of such assays
- conditionSet: source organism: Triticum aestivum
measuredEndpoint: Kd

Prompt: Fill in the blank: the reported Kd of `QYPSGQGSF` is ____.
Response: ≥ 49.3 µM

---

- targetOrSystem: HLA-A*02:01
- assaySummary: IEDB peptide-MHC binding, purified MHC/competitive/radioactivity; filed as Kd, often an IC50 or EC50 that approximates it; bounds were set here for any values at or beyond the usual limits of such assays
- conditionSet: source organism: Hepatitis C virus (isolate 1)
pKd: −log10 of the molar value.
measuredEndpoint: pKd

Prompt: Fill in the blank: the reported pKd of `AAGLQDCTM` is ____.
Response: ≤ 4.30

---

- targetOrSystem: HLA-A*03:01
- assaySummary: IEDB peptide-MHC binding, purified MHC/competitive/fluorescence; filed as Kd, often an IC50 or EC50 that approximates it; bounds were set here for any values at or beyond the usual limits of such assays
- conditionSet: source organism: Vibrio parahaemolyticus RIMD 2210633
pKd: −log10 of the molar value.
measuredEndpoint: pKd

Prompt: Please tell me: pKd of `GTVPTDNPF` , system HLA-A*03:01?
Response: ≤ 4.70

---

- targetOrSystem: HLA-A*02:01
- assaySummary: IEDB peptide-MHC binding, purified MHC/direct/fluorescence; filed as Kd, often an IC50 or EC50 that approximates it; bounds were set here for any values at or beyond the usual limits of such assays
- conditionSet: source organism: Bacillus anthracis str. 'Ames Ancestor'
measuredEndpoint: Kd

Prompt: Please tell me: Kd of `TKAGMAQYL` , system HLA-A*02:01?
Response: ≥ 20 µM

---

Kindly state Kd for each of the entries shown.
- targetOrSystem: HLA-B*46:01
- assaySummary: IEDB peptide-MHC binding, purified MHC/direct/fluorescence; filed as Kd, often an IC50 or EC50 that approximates it; bounds were set here for any values at or beyond the usual limits of such assays
- conditionSet: source organism: Vibrio vulnificus YJ016

Prompt: Fill in the blank: the reported Kd of `FPLWNTEKI` is ____.
Response: ≥ 20 µM

Prompt: Fill in the blank: the reported Kd of `EPADHLAIM` is ____.
Response: ≥ 20 µM

---

- targetOrSystem: HLA-B*15:01
- assaySummary: IEDB peptide-MHC binding, purified MHC/direct/fluorescence; filed as Kd, often an IC50 or EC50 that approximates it; bounds were set here for any values at or beyond the usual limits of such assays
- conditionSet: source organism: Vibrio vulnificus YJ016
pKd: −log10 of the molar value.
measuredEndpoint: pKd

Prompt: Please tell me: pKd of `EPADHLAIM` , system HLA-B*15:01?
Response: ≤ 4.70

Prompt: Please tell me: pKd of `FPLWNTEKI` , system HLA-B*15:01?
Response: ≤ 4.70

---

- targetOrSystem: HLA-A*01:01
- assaySummary: IEDB peptide-MHC binding, purified MHC/direct/fluorescence; filed as Kd, often an IC50 or EC50 that approximates it; bounds were set here for any values at or beyond the usual limits of such assays
- conditionSet: source organism: Vibrio parahaemolyticus
pKd: −log10 of the molar value.
measuredEndpoint: pKd

Prompt: Fill in the blank: the reported pKd of `EIPGSPGSY` is ____.
Response: ≤ 4.70
